# Tested on: Danio rerio larvae Tg(actc1b:ZsGreen-LC3), 3 dpf
# assay-overview: LC3 puncta relative area vs vehicle, with NH4Cl (autophagic flux) (log2 fold change); higher = more autophagy
# measurement-setup: 10 µM; treatment time 16 h; NH4Cl: + 100 mM, 4 h
Structures can show the parent of a compound that is named as a salt.
In this section we review reported LC3 puncta (log2) values for a set of compounds.
Quick one: just the number, no unit, thanks!

| compound | LC3 puncta (log2) |
| --- | --- |
| CC(=O)NCCc1c[nH]c2ccccc12 | 0.0329 |
| C=CCN1CC[C@]23c4c5ccc(O)c4O[C@H]2C(=O)CC[C@@]3(O)[C@H]1C5 [Naloxone hydrochloride] | 0.232 |
| CCC(Oc1ccc(Cl)cc1)C(=O)OC1C[C@H]2CC[C@@H](C1)N2C (stereo not given in full) [SM-21 maleate] | 0.294 |
| c1ccc2c(c1)OCC(C1=NCCN1)O2 (stereo not given) [Idazoxan hydrochloride] | 0.662 |

Now turn to the next compound.
The measured LC3 puncta (log2) associated with Cc1[nH]c2ccc(O)cc2c1CCN [2-Methyl-5-hydroxytryptamine hydrochloride] reads 0.337
